Source of measurements: ChEMBL document CHEMBL4689842

# System: U2OS
# protocol-text: Multiplex assay against U2OS
# Format: toxicity, cell-based
# run-conditions: human, 12 h, 1 µM, compound concentration 1 uM, replicate 2
# note: boundary value 8% maps to not satisfied; Population Pyknosed Nuclei (%) below it maps to satisfied

The examples below pair each entry with its known result.
molecule: Cc1csc2c(N[C@@H](C)CN3CCN(S(=O)(=O)c4ccc(Cl)c(Cl)c4)CC3)ncnc12
classification: not satisfied

molecule: CC(C)(O)CNc1ncc(-c2ccnc(Nc3ccnc(Cl)c3)n2)c(CC2CC2)n1
classification: not satisfied

molecule: CCN(CC)CCCCNc1ncc2cc(-c3cc(OC)cc(OC)c3)c(NC(=O)NC(C)(C)C)nc2n1
classification: not satisfied

molecule: CC(C)NCC(O)COc1ccc(CCOCC2CC2)cc1.Cl (configuration not stated) [BETAXOLOL HYDROCHLORIDE]
classification: satisfied

Turning now to a further record.
Ask: Find out if reported Population Pyknosed Nuclei (%) for C=CC(=O)Nc1cc2c(Nc3ccc(F)c(Cl)c3)ncnc2cc1OCCCN1CCOCC1.Cl.Cl [CANERTINIB DIHYDROCHLORIDE] is less than 8%
Result: not satisfied
